Tested on: MG-63 (Osteosarcoma)
Assay: combination Emax (second highest fraction inhibited in the dose matrix, 72 h); higher = more inhibition; extreme values may be limits of the assay
Kindly supply the reported combination Emax values for the records listed here.
No unit in the answer, only the number.

Lookup: Quick one: combination Emax of CC(=O)Nc1cccc(-n2c(=O)n(C3CC3)c(=O)c3c(Nc4ccc(I)cc4F)n(C)c(=O)c(C)c32)c1 [Trametinib] + Cc1nc(-c2cn3c(n2)-c2ccc(-c4cnn(C(C)(C)C(N)=O)c4)cc2OCC3)n(C(C)C)n1 [Taselisib] (first compound max 1 µM, 7x7, partner max 10 µM) ?
Found: 0.674

Lookup: Quick one: combination Emax of Cc1c2c(nn1C)CSCc1cc(n(C)n1)CSc1cc(c3ccccc3c1)OCCCc1c(C(=O)O)n(C)c3c-2c(Cl)ccc13 [AZD5991] + CC1(C)CCC(CN2CCN(c3ccc(C(=O)NS(=O)(=O)c4ccc(NCC5CCOCC5)c([N+](=O)[O-])c4)c(Oc4cnc5[nH]ccc5c4)c3)CC2)=C(c2ccc(Cl)cc2)C1 [Venetoclax] (first compound max 1 µM, 7x7, partner max 1 µM) ?
Found: 0.199

Lookup: Quick one: combination Emax of CS(=O)(=O)CCNCc1ccc(-c2ccc3ncnc(Nc4ccc(OCc5cccc(F)c5)c(Cl)c4)c3c2)o1 [Lapatinib] + C[C@@H](Oc1cc(-c2cnn(C3CCNCC3)c2)cnc1N)c1c(Cl)ccc(F)c1Cl [Crizotinib] (first compound max 10 µM, 7x7, partner max 10 µM) ?
Found: 0.936

Lookup: Quick one: combination Emax of C[C@@H](c1ccc2nccn2c1)n1nnc2ncc(-c3cnn(C)c3)nc21 [Savolitinib] + Cc1c2c(nn1C)CSCc1cc(n(C)n1)CSc1cc(c3ccccc3c1)OCCCc1c(C(=O)O)n(C)c3c-2c(Cl)ccc13 [AZD5991] (first compound max 1 µM, 7x7, partner max 1 µM) ?
Found: 0.257

Lookup: Quick one: combination Emax of Cc1c2c(nn1C)CSCc1cc(n(C)n1)CSc1cc(c3ccccc3c1)OCCCc1c(C(=O)O)n(C)c3c-2c(Cl)ccc13 [AZD5991] + Nc1ccn([C@@H]2O[C@H](CO)[C@@H](O)C2(F)F)c(=O)n1 [Gemcitabine] (first compound max 1 µM, 7x7, partner max 0.3 µM) ?
Found: 0.82

###

System: SBC-3 (Small Cell Lung Carcinoma)
Experiment: Bliss excess, mean over the matrix (fraction); higher = more synergy
Kindly supply the reported Bliss excess values for the records listed here.
No unit in the answer, only the number.

Lookup: Quick one: Bliss excess of CC1(C)CCC(CN2CCN(c3ccc(C(=O)NS(=O)(=O)c4ccc(NCC5CCOCC5)c([N+](=O)[O-])c4)c(Oc4cnc5[nH]ccc5c4)c3)CC2)=C(c2ccc(Cl)cc2)C1 [Venetoclax] + COc1cc(Nc2ncc3c(n2)-c2ccc(Cl)cc2C(c2c(F)cccc2OC)=NC3)ccc1C(=O)O [Alisertib] (first compound max 1 µM, 7x7, partner max 10 µM) ?
Found: 0.0101

Lookup: Quick one: Bliss excess of CN(C)CCCOc1ccc(-c2ccc3ncc4c(c3c2)n(C2CCOCC2)c(=O)n4C)cn1 [AZD0156] + C[C@@H]1COCCN1C2=NC(=NC(=C2)C3(CC3)[S@](=N)(=O)C)C4=C5C=CNC5=NC=C4 [AZD6738] (first compound max 1 µM, 7x7, partner max 10 µM) ?
Found: 0.0039

Lookup: Quick one: Bliss excess of CN(C)CCCOc1ccc(-c2ccc3ncc4c(c3c2)n(C2CCOCC2)c(=O)n4C)cn1 [AZD0156] + O=C(c1cc(Cc2n[nH]c(=O)c3ccccc23)ccc1F)N1CCN(C(=O)C2CC2)CC1 [Olaparib] (first compound max 3 µM, partner max 3 µM) ?
Found: 0.206

Lookup: Quick one: Bliss excess of Cc1cc2ncnn2cc1Nc1ncc2c(n1)n(C1CCOCC1)c(=O)n2C [AZD7648] + CCN(CCO)CCCOc1ccc2c(Nc3cc(CC(=O)Nc4cccc(F)c4)[nH]n3)ncnc2c1 [AZD2811] (first compound max 10 µM, 7x7, partner max 1 µM) ?
Found: 0.0455

###

Tested on: L-363 (Plasma Cell Myeloma)
Assay: combination Emax (second highest fraction inhibited in the dose matrix, 72 h); higher = more inhibition; extreme values may be limits of the assay
endpoint: combination Emax
No unit in the answer, only the number.

Lookup: Quick one: combination Emax of CC(=O)c1c(C)c2cnc(Nc3ccc(N4CCNCC4)cn3)nc2n(C2CCCC2)c1=O [Palbociclib] + CC1(C)CCC(CN2CCN(c3ccc(C(=O)NS(=O)(=O)c4ccc(NCC5CCOCC5)c([N+](=O)[O-])c4)c(Oc4cnc5[nH]ccc5c4)c3)CC2)=C(c2ccc(Cl)cc2)C1 [Venetoclax] (first compound max 10 µM, 7x7, partner max 1 µM) ?
Found: 0.208

Lookup: Quick one: combination Emax of C[C@@H]1COCCN1c1cc(C2([S@](C)(=N)=O)CC2)nc(-c2ccnc3[nH]ccc23)n1 [AZD6738] + O=C(c1cc(Cc2n[nH]c(=O)c3ccccc23)ccc1F)N1CCN(C(=O)C2CC2)CC1 [Olaparib] (first compound max 10 µM, 7x7, partner max 10 µM) ?
Found: 0.854

Lookup: Quick one: combination Emax of CN(CCO)CC[C@H](CSc1ccccc1)Nc1ccc(S(=O)(=O)NC(=O)c2ccc(N3CCC([C@@H](O)c4ccccc4-c4ccc(Cl)cc4)CC3)cc2)cc1S(=O)(=O)C(F)(F)F [AZD4320] + Cn1cnc2c(F)c(Nc3ccc(Br)cc3Cl)c(C(=O)NOCCO)cc21 [Selumetinib] (first compound max 1 µM, 7x7, partner max 3 µM) ?
Found: 0.212

Lookup: Quick one: combination Emax of Cc1nc(-c2cn3c(n2)-c2ccc(-c4cnn(C(C)(C)C(N)=O)c4)cc2OCC3)n(C(C)C)n1 [Taselisib] + O=C(Nc1ccc2[nH]nc(-c3ccncc3)c2c1)[C@@H]1CCN(CC(=O)N2CCN(c3ccc(-c4ncccn4)cc3)CC2)C1 [SCH772984] (first compound max 10 µM, 7x7, partner max 5 µM) ?
Found: 0.63

Lookup: Quick one: combination Emax of COc1nnc2ccc(N3CCC(c4ccc(OCCN5CCN(C)C(=O)[C@H]5C)cc4)CC3)nn12 [AZD5153] + Cc1c2c(nn1C)CSCc1cc(n(C)n1)CSc1cc(c3ccccc3c1)OCCCc1c(C(=O)O)n(C)c3c-2c(Cl)ccc13 [AZD5991] (first compound max 1 µM, 7x7, partner max 1 µM) ?
Found: 0.994

Lookup: Quick one: combination Emax of CN(CCO)CC[C@H](CSc1ccccc1)Nc1ccc(S(=O)(=O)NC(=O)c2ccc(N3CCC([C@@H](O)c4ccccc4-c4ccc(Cl)cc4)CC3)cc2)cc1S(=O)(=O)C(F)(F)F [AZD4320] + C[C@@H]1COCCN1C2=NC(=NC(=C2)C3(CC3)[S@](=N)(=O)C)C4=C5C=CNC5=NC=C4 [AZD6738] (first compound max 1 µM, 7x7, partner max 10 µM) ?
Found: 0.853

###

Test system: RS4-11 (B-Lymphoblastic Leukemia)
Assay: Bliss excess, mean over the matrix (fraction); higher = more synergy
endpoint: Bliss excess
No unit in the answer, only the number.

Lookup: Quick one: Bliss excess of COc1cccc(OCCCN)c1-c1cc(Nc2cnc(C#N)cn2)n[nH]1 [Prexasertib] + O=C(c1cc(Cc2n[nH]c(=O)c3ccccc23)ccc1F)N1CCN(C(=O)C2CC2)CC1 [Olaparib] (first compound max 1 µM, 7x7, partner max 10 µM) ?
Found: -0.0025

Lookup: Quick one: Bliss excess of CC1(C)CCC(CN2CCN(c3ccc(C(=O)NS(=O)(=O)c4ccc(NCC5CCOCC5)c([N+](=O)[O-])c4)c(Oc4cnc5[nH]ccc5c4)c3)CC2)=C(c2ccc(Cl)cc2)C1 [Venetoclax] + C=CCn1c(=O)c2cnc(Nc3ccc(N4CCN(C)CC4)cc3)nc2n1-c1cccc(C(C)(C)O)n1 [AZD1775] (first compound max 1 µM, partner max 1 µM) ?
Found: 0.0174

Lookup: Quick one: Bliss excess of COc1cc2ncnc(Nc3ccc(F)c(Cl)c3)c2cc1OCCCN1CCOCC1 [Gefitinib] + CC(C)n1c(=O)n(C)c2cnc3cc(F)c(-c4ccc(OCCCN5CCCCC5)nc4)cc3c21 [AZD1390] (first compound max 10 µM, 7x7, partner max 0.3 µM) ?
Found: -0.0484

Lookup: Quick one: Bliss excess of COc1cccc(OCCCN)c1-c1cc(Nc2cnc(C#N)cn2)n[nH]1 [Prexasertib] + C=CCn1c(=O)c2cnc(Nc3ccc(N4CCN(C)CC4)cc3)nc2n1-c1cccc(C(C)(C)O)n1 [AZD1775] (first compound max 1 µM, partner max 1 µM) ?
Found: 0.0466

###

Kindly supply the reported combination Emax values for the records listed here.
System: SBC-3 (Small Cell Lung Carcinoma)
Test: combination Emax (second highest fraction inhibited in the dose matrix, 72 h); higher = more inhibition; extreme values may be limits of the assay
No unit in the answer, only the number.

Lookup: Quick one: combination Emax of Cn1cnc2c(F)c(Nc3ccc(Br)cc3Cl)c(C(=O)NOCCO)cc21 [Selumetinib] + C=CCn1c(=O)c2cnc(Nc3ccc(N4CCN(C)CC4)cc3)nc2n1-c1cccc(C(C)(C)O)n1 [AZD1775] (first compound max 10 µM, partner max 1 µM) ?
Found: 0.269

Lookup: Quick one: combination Emax of CC1(C)CCC(CN2CCN(c3ccc(C(=O)NS(=O)(=O)c4ccc(NCC5CCOCC5)c([N+](=O)[O-])c4)c(Oc4cnc5[nH]ccc5c4)c3)CC2)=C(c2ccc(Cl)cc2)C1 [Venetoclax] + Cn1cnc2c(F)c(Nc3ccc(Br)cc3Cl)c(C(=O)NOCCO)cc21 [Selumetinib] (first compound max 1 µM, 7x7, partner max 3 µM) ?
Found: 0.605

Lookup: Quick one: combination Emax of CC(=O)c1c(C)c2cnc(Nc3ccc(N4CCNCC4)cn3)nc2n(C2CCCC2)c1=O [Palbociclib] + Cn1cnc2c(F)c(Nc3ccc(Br)cc3Cl)c(C(=O)NOCCO)cc21 [Selumetinib] (first compound max 10 µM, 7x7, partner max 10 µM) ?
Found: 0.744

Lookup: Quick one: combination Emax of Cn1cnc2c(F)c(Nc3ccc(Br)cc3Cl)c(C(=O)NOCCO)cc21 [Selumetinib] + CCN(CCO)CCCOc1ccc2c(Nc3cc(CC(=O)Nc4cccc(F)c4)[nH]n3)ncnc2c1 [AZD2811] (first compound max 10 µM, 7x7, partner max 1 µM) ?
Found: 0.482
